assay_endpoint: melting point

# input What does the data say about its melting point? Entry: `O=Cc1cccc2cnccc12`
# output 115 °C

# input What does the data say about its melting point? Entry: `Cc1nc(-c2ccc(C(F)(F)F)cc2)sc1Br`
# output 68 to 69 °C

# input What does the data say about its melting point? Entry: `CC(C)NNC(=O)c1ccncc1`
# output 150 °C

# input What does the data say about its melting point? Entry: `Cc1cccc(C(=O)NCC(=O)O)c1`
# output 138 to 142 °C

# input What does the data say about its melting point? Entry: `CN1CCc2c(sc(N)c2C#N)C1`
# output 192 to 194 °C

# input What does the data say about its melting point? Entry: `NNC(=O)c1ccc(C(F)(F)F)cc1`
# output 121 °C

# input What does the data say about its melting point? Entry: `Cc1cc(OC(=O)N(C)C)nn1C(=O)N(C)C`
# output 69.5 °C

====

Listing of entries alongside the reported melting point.
Supply the numeric figure in °C, leaving out any unit text.

compound_structure: c1ccc(-c2nc3ccccc3nc2-c2ccc3c4c(cccc24)CC3)cc1
unit_of_measure: °C
melting point: 162
--
compound_structure: Cc1c2cccc(-c3ccccc3)c2cc2c(-c3ccccc3)cccc12
unit_of_measure: °C
melting point: 177
--
compound_structure: O=C1C=CC(=O)c2c(O)ccc(O)c21
unit_of_measure: °C
melting point: 237

# input What does the data say about its melting point? Entry: `CCCCCCCCC(=O)OCCCCCCC`
# output -15.5

# input What does the data say about its melting point? Entry: `COC(=O)c1ccc([N+](=O)[O-])c(OC)c1`
# output 85

# input What does the data say about its melting point? Entry: `COc1ccc2c(C(=S)N(C)CC(=O)O)cccc2c1C(F)(F)F`
# output 164

# input What does the data say about its melting point? Entry: `Cc1cc(Br)ccc1N`
# output 59.5

# input What does the data say about its melting point? Entry: `CC(=O)CCc1oc2c(I)cc(I)cc2c1-c1ccc(C)o1`
# output 192

====

Simple rule here: melting point less than 70 °C is class 1, otherwise class 0.

Solved entries (count: 3):
compound: CCCCCc1ccc(-c2ccc(C#N)cc2)cc1
group_label: class 1
--
compound: CN(C)C1C(=O)C(=C(N)O)C(=O)C2(O)C(=O)C3=C(O)c4c(O)ccc(Cl)c4C(O)C3CC12 (configuration not stated)
group_label: class 0
--
compound: O=C1NCc2ccccc21
group_label: class 0

Now, please, on to the next compound.
# input Could you please tell me whether melting point recorded for `CC(C)=C1CC(=C(C)C)C1=O` is less than 70 °C?
# output class 0

====

assay_endpoint: melting point (°C)
Supply the numeric figure in °C, leaving out any unit text.

# input What does the data say about its melting point? Entry: `COc1ccc2c(C)cc(=O)oc2c1`
# output 161

# input What does the data say about its melting point? Entry: `Cc1cnc(N)c(I)c1`
# output 88

# input What does the data say about its melting point? Entry: `CC(=O)O[C@]12CC[C@@H](C(C)(C)C)C[C@H]1O[C@@H]2c1c(F)c(F)c(F)c(F)c1F`
# output 83

# input What does the data say about its melting point? Entry: `Oc1cc(F)c(F)cc1F`
# output 41

# input What does the data say about its melting point? Entry: `COc1cc(C=C2C(=O)NN=C2c2c(O)c3ccccc3n(C)c2=O)cc(OC)c1OC`
# output 196

# input What does the data say about its melting point? Entry: CC1CS(=O)(=O)CCN1N=Cc1ccc([N+](=O)[O-])o1 (stereo not given)
# output 181

# input What does the data say about its melting point? Entry: `Oc1ccc(C2CCCCC2)cc1`
# output 133

# input What does the data say about its melting point? Entry: `COc1ccc(-c2ccc(S(=O)(=O)NCCC(=O)O)cc2)cc1`
# output 190

# input What does the data say about its melting point? Entry: `CCc1ccc([N+](=O)[O-])cc1`
# output -12

# input What does the data say about its melting point? Entry: `Nc1ccc2[nH]ccc2c1`
# output 132

# input What does the data say about its melting point? Entry: CCC(C=C1C(=O)C2(C)CCC1C2(C)C)C(=O)O (stereo not given)
# output 118

# input What does the data say about its melting point? Entry: `Cc1cc(Cl)cc(Cl)c1`
# output 26

====

Listing of entries alongside the reported melting point.
Supply the numeric figure in °C, leaving out any unit text.

molecule: Cc1cc(Br)c(N)c(Br)c1
assay_endpoint: melting point
unit_of_measure: °C
numeric_readout: 74

# input What does the data say about its melting point? Entry: `c1ccc(/N=N/c2ccccc2NNc2ccccc2)cc1`
# output 99

# input What does the data say about its melting point? Entry: `CCCCCCCCCCCCCCCCCc1ccccc1`
# output 32

# input What does the data say about its melting point? Entry: `Oc1cc(Cl)c(Cl)c(Cl)c1`
# output 101

# input What does the data say about its melting point? Entry: `O=C(O)Cc1ccc(F)cc1F`
# output 118

# input What does the data say about its melting point? Entry: COC(C)COC(C)CO (configuration not stated)
# output -83

# input What does the data say about its melting point? Entry: OCC1OC(n2cnc3c2N=CNCC3O)CC1O (configuration not stated)
# output 220

# input What does the data say about its melting point? Entry: `Nc1[nH]c(=O)[nH]c(=O)c1N=O`
# output 280

# input What does the data say about its melting point? Entry: `O=C(c1cccc(F)c1)c1cccc(F)c1`
# output 59

====

Listing of entries alongside the reported melting point.
Supply the numeric figure in °C, leaving out any unit text.

The following compounds have reported results that may help.
compound: Cc1cc(I)c(C)c(C)c1C
melting point, °C: 31
--
compound: CC(=O)N[C@@H](CC(C)C)C(=O)O
melting point, °C: 178
--
compound: CC1CC(C)(C)CC1=O (configuration not stated)
melting point, °C: -25.6
--
compound: Cc1ccc(C(=O)c2nn(-c3ccccc3)/c(=N\N=Cc3ccco3)s2)cc1
melting point, °C: 113
--
compound: Nc1cc(-c2cccs2)n[nH]1
melting point, °C: 101

# input What does the data say about its melting point? Entry: `O=C(O)c1ncoc1-c1ccccc1`
# output 181

# input What does the data say about its melting point? Entry: `COc1ccc(CCN2CCC(Nc3nc4ccccc4n3Cc3ccc(F)cc3)CC2)cc1`
# output 149

====

assay_endpoint: melting point

The following compounds have reported results that may help.
compound: C[C@]12CCC(=O)C[C@@H]1CCC1=C2CC[C@@H]2C(=O)CC[C@H]12
assay_endpoint: melting point
result: 137 to 138 °C
--
compound: C[C@@](O)(CC(=O)O)C(=O)O
assay_endpoint: melting point
result: 107 to 111 °C
--
compound: CSc1ncnc2c1cnn2-c1ccccc1
assay_endpoint: melting point
result: 115 to 117 °C
--
compound: CC(CCc1ccccc1)NCC(O)c1ccc(O)c(C(N)=O)c1 (configuration not stated)
assay_endpoint: melting point
result: 190 °C
--
compound: O=C(O)C1NCCS1 (configuration not stated)
assay_endpoint: melting point
result: 182 °C
--
compound: Cc1ccc(Cl)c(C(=O)O)c1
assay_endpoint: melting point
result: 148 to 150 °C
--
compound: CC(C)CC(=O)NC(C(=O)NC(C(=O)NC(CC(C)C)C(O)CC(=O)NC(C)C(=O)NC(CC(C)C)C(O)CC(=O)O)C(C)C)C(C)C (configuration not stated)
assay_endpoint: melting point
result: 233 °C
--
compound: COC(=O)c1ccc(N(C)C)cc1
assay_endpoint: melting point
result: 100 °C
--
compound: NC(=O)C12CCN(CC1)CC2
assay_endpoint: melting point
result: 235 to 237 °C
--
compound: COP(=O)(OC)SCn1c(=O)oc2cc(Cl)cnc21
assay_endpoint: melting point
result: 89 °C

# input What does the data say about its melting point? Entry: `S=C=Nc1ccc(Br)cc1Cl`
# output 46 °C

# input What does the data say about its melting point? Entry: `OCC(F)(F)C(F)(F)C(F)(F)C(F)(F)C(F)(F)C(F)(F)C(F)(F)C(F)(F)CO`
# output 132 to 137 °C

====

Listing of entries alongside the reported melting point.

The following compounds have reported results that may help.
compound: CCC(Oc1c(I)cc(I)cc1I)C(=O)O (configuration not stated)
melting point: 124 °C
//
compound: CC(C)(C)C(=O)OCOc1ccccc1C(N)=O
melting point: 95 °C

# input What does the data say about its melting point? Entry: `O=C(Nc1ccc(-c2ccc(NC(=O)c3ccccc3)cc2NC(=O)c2ccccc2)c(NC(=O)c2ccccc2)c1)c1ccccc1`
# output 279 °C

# input What does the data say about its melting point? Entry: `Cc1nccnc1O`
# output 153 °C

# input What does the data say about its melting point? Entry: `CC#CCCCCC`
# output -61.6 °C

# input What does the data say about its melting point? Entry: `CCCCCCCCCCCCCCCCCCNC`
# output 44 °C

# input What does the data say about its melting point? Entry: `O=C(C=Cc1ccccc1)n1ccnc1`
# output 127 to 133 °C

# input What does the data say about its melting point? Entry: `O=C(Cl)c1ccc2c(c1)OCCCO2`
# output 29 to 33 °C

# input What does the data say about its melting point? Entry: COC(=O)C1CCC(C)(C(O)(c2ccccc2)c2ccccc2)OC1(C)C (configuration not stated)
# output 91 °C

# input What does the data say about its melting point? Entry: OC12CCCCC1c1ccccc12 (configuration not stated)
# output 112 °C

# input What does the data say about its melting point? Entry: CC(C)(C)c1ccc(C2CCC3(CC2)Cc2ccc(OS(=O)(=O)C(F)(F)F)cc2C3)cc1 (configuration not stated)
# output 122 to 124 °C

# input What does the data say about its melting point? Entry: `O=CCO`
# output 97 °C
